Taken from patent US20240116985A1.

# Assayed target: T1, B-cat-Halo (beta-catenin HaloTag construct expressed in HEK293 cells) (UniProt P35222 1-781)
# T1 sequence (looked up): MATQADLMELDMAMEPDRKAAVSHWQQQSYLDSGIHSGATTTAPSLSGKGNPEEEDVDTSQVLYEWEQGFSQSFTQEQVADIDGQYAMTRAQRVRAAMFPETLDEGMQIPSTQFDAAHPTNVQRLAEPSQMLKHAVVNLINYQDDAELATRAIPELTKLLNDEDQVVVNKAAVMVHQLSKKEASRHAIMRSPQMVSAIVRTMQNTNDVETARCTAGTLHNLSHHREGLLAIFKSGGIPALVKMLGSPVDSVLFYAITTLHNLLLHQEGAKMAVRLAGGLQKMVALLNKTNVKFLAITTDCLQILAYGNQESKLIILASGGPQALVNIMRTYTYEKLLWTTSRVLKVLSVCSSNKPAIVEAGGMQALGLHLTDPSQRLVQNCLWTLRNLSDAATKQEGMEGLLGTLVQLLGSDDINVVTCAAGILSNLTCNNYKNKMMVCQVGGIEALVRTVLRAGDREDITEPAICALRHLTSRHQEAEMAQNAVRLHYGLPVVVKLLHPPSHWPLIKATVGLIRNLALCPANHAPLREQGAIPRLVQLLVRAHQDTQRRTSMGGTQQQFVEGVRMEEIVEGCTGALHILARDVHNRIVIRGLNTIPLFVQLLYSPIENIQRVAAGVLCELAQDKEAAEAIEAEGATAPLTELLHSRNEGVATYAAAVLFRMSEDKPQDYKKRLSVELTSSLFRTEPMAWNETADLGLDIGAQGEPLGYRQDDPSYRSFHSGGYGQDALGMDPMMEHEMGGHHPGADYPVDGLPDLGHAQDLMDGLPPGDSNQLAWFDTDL
# Protocol summary: cell-based or functional assay
Starred links: 1 amine or outer side, 2 acyl side, 3 side chain; linkers in the order of their positions; H or OH if unused. Positions of bridges follow the written chain, without caps; N, C: chain ends. Non-standard residues stand in square brackets, D forms with d. Primed or numbered codes have the meaning given here. *: point of attachment. PyrS2(3) = (S)-3-amino-1-((pent-4-en-1-yloxy)carbonyl)pyrrolidine-3-carboxylic acid, stapling residue, C=CCCCOC(=O)N1CC[C@@](N[*:1])(C(=O)[*:2])C1; B5(18) = 2,2-bis(4-pentenyl)glycine (2-amino-2-(pent-4-en-1-yl)hept-6-enoic acid), stitching residue, C=CCCCC(CCCC=C)(N[*:1])C(=O)[*:2]; TfeGA = (S)-2-amino-3-((carboxymethyl)(2,2,2-trifluoroethyl)amino)propanoic acid, O=C([C@H](CN(CC(=O)[*:3])CC(F)(F)F)N[*:1])[*:2]; 2COOH4NO2Ph = 2-carboxy-4-nitrophenyl group on the side chain (attached at Dap N or Cys S), O=C(O)c1cc([N+](=O)[O-])ccc1*; GAbu = (S)-2-amino-4-((carboxymethyl)amino)butanoic acid, O=C([C@H](CCNCC(=O)[*:3])N[*:1])[*:2]; TriAzDap = Dap whose side chain is a 1H-1,2,3-triazol-1-yl bearing the bracketed 4-substituent; Phe(3-COOH) = N[C@@H](Cc1cccc(C(=O)O)c1)C(=O)O; Phe(2-Cl) = N[C@@H](Cc1ccccc1Cl)C(=O)O; Bta = N[C@@H](Cc1csc2ccccc12)C(=O)O; αAllylPro = C=CC[C@@]1(C(=O)O)CCCN1; tBuAla = CC(C)(C)C[C@H](N)C(=O)O; 3Thi = N[C@@H](Cc1ccsc1)C(=O)O; 2Nic = not defined here; Dap = NC[C@H](N)C(=O)O
Property measured: NanoBRET Abs IC50 (µM)
Enter your answer as a number in µM; do not include the unit.

Which NanoBRET Abs IC50 value is on record for Ac-[αAllylPro]N[tBuAla][B5(18)]D[Phe(3-COOH)]AAFL[PyrS2(3)][Phe(2-Cl)][Bta]S-NH2 (staple 1-4, 4-11) [I-1853] ?
16.3

Item under review: Ac-[αAllylPro]D[tBuAla][B5(18)]D[GAbu](Ac)AAFL[PyrS2(3)][3Thi][Bta]Q-NH2 (staple 1-4, 4-11; also: double bonds not converted) [I-1840] . Reported NanoBRET Abs IC50?
22.3

Which NanoBRET Abs IC50 reading was recorded for the binder Ac-[αAllylPro]D[tBuAla][B5(18)]D[Phe(3-COOH)]AAFV[PyrS2(3)][Phe(2-Cl)][Bta]S-NH2 (staple 1-4, 4-11) [I-1850] ?
3.8

Name the recorded NanoBRET Abs IC50 for Ac-[αAllylPro]D[tBuAla][B5(18)]D[TfeGA]AAF[TriAzDap](CH2NMe2)[PyrS2(3)][3Thi][Bta]Q-NH2 (staple 1-4, 4-11; not fully specified) [I-1861] .
37.3

Fill in the blank: the reported NanoBRET Abs IC50 of Ac-[αAllylPro]D[tBuAla][B5(18)]D[Dap](2COOH4NO2Ph)AAFL[PyrS2(3)][3Thi][Bta]Q-NH2 (staple 1-4, 4-11) [I-1843] is ____.
9.5

Returns the measured NanoBRET Abs IC50 for the input binder. Input: Ac-[αAllylPro]D[tBuAla][B5(18)]D[TfeGA]AAF[TriAzDap](CH2NMe2)[PyrS2(3)][3Thi][Bta]Q-NH2 (staple 1-4, 4-11; not fully specified) [I-1862]
19.3

# input binder: Ac-[αAllylPro]D[tBuAla][B5(18)]D[Dap](2Nic)AAFL[PyrS2(3)][3Thi][Bta]Q-NH2 (staple 1-4, 4-11; reading uncertain) [I-1845] ; wanted: its NanoBRET Abs IC50
6.3
